test system: EEEV-nLuc replicon; conditions: read-out: IC50 (EEEV-nLuc replicon)
EXPERIMENTAL ENDPOINT: pIC50
Give bare numbers, as −log10 of the molar value.

*Q* Param readout= pIC50; system= EEEV-nLuc replicon; entry= CCOc1ccccc1-c1cc(C(=O)NC/C=C/S(C)(=O)=O)on1 [Compound 3] ; returns value.
*A* 6.03

###

target: UniProt:F2YI08; test: biochemical
EXPERIMENTAL ENDPOINT: pIC50
Numbers only, as −log10 of the molar value.

*Q* Return pIC50 measured with UniProt:F2YI08 given this molecule: C#CCOc1ccccc1-c1cc(C(=O)NC/C=C/S(C)(=O)=O)on1
*A* 7.19
